# subject of test: HCV NS3/4A protease D168A variant (Hepatitis C virus genotype 1a, UniProt P27958, C1185S/D1194A)
# Construct: His-tag (cleaved yes); made in house; host or cells: Escherichia coli BL21(DE3), PET28a vector
# Sequence (P27958 1027-1208 C1185S/D1194A): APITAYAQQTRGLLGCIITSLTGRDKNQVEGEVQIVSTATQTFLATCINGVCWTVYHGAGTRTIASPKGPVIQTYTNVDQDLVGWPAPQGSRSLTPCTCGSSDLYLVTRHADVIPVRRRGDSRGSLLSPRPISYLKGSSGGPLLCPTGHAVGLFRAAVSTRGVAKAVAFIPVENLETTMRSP
# assay name: biochemical
# Type: biochemical
# condition info: Table 2; read-out: Ki D168A
pKi: −log10 of the molar value.

compound	pKi
COc1ccc2nc(C)c(O[C@@H]3C[C@H]4C(=O)N[C@]5(C(=O)NS(=O)(=O)C6(C)CC6)C[C@H]5/C=C\CCCCC[C@H](NC(=O)OC5(C)CCCC5)C(=O)N4C3)nc2c1 [JZ01-19]	7.44

* * *

# subject of test: HCV NS3/4A protease D168A variant (Hepatitis C virus genotype 1a, UniProt P27958, C1185S/D1194A)
# Construct: His-tag (cleaved yes); made in house; host or cells: Escherichia coli BL21(DE3), PET28a vector
# assay name: biochemical
# Assay type: biochemical
# condition info: Table S1; Morrison equation fit; read-out: Ki D168A
# Method: The HCV GT1a NS3/4A protease gene described in the Bristol Myers Squibb patent was synthesized by GenScript and cloned into a PET28a expression vector. Cys159 was mutated to a serine residue to prevent disulfide bond formation and facilitate crystallization. The D168A gene was engineered using the site-directed mutagenesis protocol from Stratagene. Protein expression and purification were carried out as previously described. Km constants for GT1 and D168A protease were previously determined. […]

chemical string	Ki [nM]
COc1ccc2nc(C)c(O[C@@H]3C[C@H]4C(=O)N[C@]5(C(=O)NS(=O)(=O)C6(C)CC6)C[C@H]5/C=C\CCCCC[C@H](NC(=O)OC5(C)CCCC5)C(=O)N4C3)nc2c1	36

* * *

# subject of test: HCV NS3/4A protease GT3 (Hepatitis C virus genotype 3a, UniProt Q81495)
# Sequence (Q81495 1033-1214): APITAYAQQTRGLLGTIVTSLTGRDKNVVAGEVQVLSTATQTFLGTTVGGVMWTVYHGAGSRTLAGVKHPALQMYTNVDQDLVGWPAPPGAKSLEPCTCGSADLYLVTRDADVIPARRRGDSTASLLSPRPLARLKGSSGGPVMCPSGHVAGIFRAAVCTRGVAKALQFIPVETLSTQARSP
# Sequence (Q81495 1664-1717): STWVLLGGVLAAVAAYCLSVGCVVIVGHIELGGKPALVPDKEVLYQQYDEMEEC
# assay name: biochemical
pKi: −log10 of the molar value.

chemical string	subject of test	pKi
COc1ccc2nc(C(F)(F)F)c(O[C@@H]3C[C@H]4C(=O)N[C@]5(C(=O)NS(=O)(=O)C6(C)CC6)C[C@H]5/C=C\CCCCC[C@H](NC(=O)OC5(C)CCCC5)C(=O)N4C3)nc2c1	HCV NS3/4A protease GT3 (Hepatitis C virus genotype 3a, UniProt Q81495)	6.79
COc1ccc2nc(C)c(O[C@@H]3C[C@H]4C(=O)N[C@]5(C(=O)NS(=O)(=O)C6(C)CC6)C[C@H]5/C=C\CCCCC[C@H](NC(=O)OC5(C(F)(F)F)CCC5)C(=O)N4C3)nc2c1	HCV NS3/4A protease GT3 (Hepatitis C virus genotype 3a, UniProt Q81495)	7.02
COc1ccc2nc(C(F)(F)F)c(O[C@@H]3C[C@H]4C(=O)N[C@]5(C(=O)NS(=O)(=O)C6(C)CC6)C[C@H]5/C=C\CCCCC[C@H](NC(=O)OC5(C)CCC5)C(=O)N4C3)nc2c1	HCV NS3/4A protease GT3 (Hepatitis C virus genotype 3a, UniProt Q81495)	6.55
COc1ccc2nc(C)c(O[C@@H]3C[C@H]4C(=O)N[C@]5(C(=O)NS(=O)(=O)C6(C)CC6)C[C@H]5/C=C\CCCCC[C@H](NC(=O)OC5(C)CCCC5)C(=O)N4C3)nc2c1	HCV NS3/4A protease GT3 (Hepatitis C virus genotype 3a, UniProt Q81495)	6.82
COc1ccc2nc(C(F)(F)F)c(O[C@@H]3C[C@H]4C(=O)N[C@]5(C(=O)NS(=O)(=O)C6(C)CC6)C[C@H]5/C=C\CCCCC[C@H](NC(=O)O[C@@H](C)C(C)C)C(=O)N4C3)nc2c1	HCV NS3/4A protease GT3 (Hepatitis C virus genotype 3a, UniProt Q81495)	6.35

* * *

# subject of test: wild-type HCV NS3/4A protease (GT1a) (Hepatitis C virus genotype 1a, UniProt P27958, C1185S)
# Construct: His-tag (cleaved yes); made in house; host or cells: Escherichia coli BL21(DE3), PET28a vector
# Sequence (P27958 1027-1208 C1185S): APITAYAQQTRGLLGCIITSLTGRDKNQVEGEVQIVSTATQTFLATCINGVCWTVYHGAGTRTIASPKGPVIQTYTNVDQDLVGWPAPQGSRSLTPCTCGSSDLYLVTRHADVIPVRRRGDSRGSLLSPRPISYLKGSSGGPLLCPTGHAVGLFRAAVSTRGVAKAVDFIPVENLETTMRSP
# assay name: biochemical
# Type: biochemical
pKi: −log10 of the molar value.
Please note: Met applies when pKi is 9 or greater, and Not met applies otherwise.

chemical string	assigned class
COc1ccc2nc(C(F)(F)F)c(O[C@@H]3C[C@H]4C(=O)N[C@]5(C(=O)NS(=O)(=O)C6(C)CC6)C[C@H]5/C=C\CCCCC[C@H](NC(=O)OCC(C)C)C(=O)N4C3)nc2c1	Not met
COc1ccc2nc(C)c(O[C@@H]3C[C@H]4C(=O)N[C@]5(C(=O)NS(=O)(=O)C6(C)CC6)C[C@H]5/C=C\CCCCC[C@H](NC(=O)OC5CCC5)C(=O)N4C3)nc2c1	Met
COc1ccc2nc(C(F)(F)F)c(O[C@@H]3C[C@H]4C(=O)N[C@]5(C(=O)NS(=O)(=O)C6(C)CC6)C[C@H]5/C=C\CCCCC[C@H](NC(=O)O[C@@H]5CCC[C@H]5F)C(=O)N4C3)nc2c1	Not met

* * *

# subject of test: HCV NS3/4A protease D168A variant (Hepatitis C virus genotype 1a, UniProt P27958, C1185S/D1194A)
# Construct: His-tag (cleaved yes); made in house; host or cells: Escherichia coli BL21(DE3), PET28a vector
# assay name: biochemical
# Assay type: biochemical
Lab note - cut at 30 nM for Ki: class 1 if strictly below, class 0 if not.

chemical string	assigned class
COc1ccc2nc(C)c(O[C@@H]3C[C@H]4C(=O)N[C@]5(C(=O)NS(=O)(=O)C6(C)CC6)C[C@H]5/C=C\CCCCC[C@H](NC(=O)OC5CC(F)(F)C5)C(=O)N4C3)nc2c1	class 1
COc1ccc2nc(C)c(O[C@@H]3C[C@H]4C(=O)N[C@]5(C(=O)NS(=O)(=O)C6(C)CC6)C[C@H]5/C=C\CCCCC[C@H](NC(=O)O[C@@H](C)C(F)(F)F)C(=O)N4C3)nc2c1	class 0
COc1ccc2nc(C(F)(F)F)c(O[C@@H]3C[C@H]4C(=O)N[C@]5(C(=O)NS(=O)(=O)C6(C)CC6)C[C@H]5/C=C\CCCCC[C@H](NC(=O)OC5(C)CC5)C(=O)N4C3)nc2c1	class 0
COc1ccc2nc(C)c(O[C@@H]3C[C@H]4C(=O)N[C@]5(C(=O)NS(=O)(=O)C6(C)CC6)C[C@H]5/C=C\CCCCC[C@H](NC(=O)[C@@H](NC(C)=O)C(C)C)C(=O)N4C3)nc2c1	class 0
COc1ccc2nc(C(F)(F)F)c(O[C@@H]3C[C@H]4C(=O)N[C@]5(C(=O)NS(=O)(=O)C6(C)CC6)C[C@H]5/C=C\CCCCC[C@H](NC(=O)OCC5(C)CC5)C(=O)N4C3)nc2c1	class 1
COc1ccc2nc(C)c(O[C@@H]3C[C@H]4C(=O)N[C@]5(C(=O)NS(=O)(=O)C6(C)CC6)C[C@H]5/C=C\CCCCC[C@H](NC(=O)O[C@@H]5CCC[C@H]5F)C(=O)N4C3)nc2c1	class 1
COc1ccc2nc(C(F)(F)F)c(O[C@@H]3C[C@H]4C(=O)N[C@]5(C(=O)NS(=O)(=O)C6(C)CC6)C[C@H]5/C=C\CCCCC[C@H](NC(=O)OC(C)(C)C(F)(F)F)C(=O)N4C3)nc2c1	class 1
COc1ccc2nc(C)c(O[C@@H]3C[C@H]4C(=O)N[C@]5(C(=O)NS(=O)(=O)C6(C)CC6)C[C@H]5/C=C\CCCCC[C@H](NC(=O)OC5(C)CC5)C(=O)N4C3)nc2c1	class 1
COc1ccc2nc(C(F)(F)F)c(O[C@@H]3C[C@H]4C(=O)N[C@]5(C(=O)NS(=O)(=O)C6(C)CC6)C[C@H]5/C=C\CCCCC[C@H](NC(=O)O[C@@H](C)C5CC5)C(=O)N4C3)nc2c1	class 0
CCC(C)(C)OC(=O)N[C@H]1CCCCC/C=C\[C@@H]2C[C@@]2(C(=O)NS(=O)(=O)C2(C)CC2)NC(=O)[C@@H]2C[C@@H](Oc3nc4cc(OC)ccc4nc3C(F)(F)F)CN2C1=O	class 1

* * *

# subject of test: HCV NS3/4A protease GT3 (Hepatitis C virus genotype 3a, UniProt Q81495)
# assay name: biochemical
# condition info: Table 2; read-out: Ki GT3
pKi: −log10 of the molar value.

chemical string	pKi
COc1ccc2nc(C)c(O[C@@H]3C[C@H]4C(=O)N[C@]5(C(=O)NS(=O)(=O)C6(C)CC6)C[C@H]5/C=C\CCCCC[C@H](NC(=O)OC5(C)CCCC5)C(=O)N4C3)nc2c1	6.92

* * *

# Lookup of reported pKi keyed by entry
# subject of test: wild-type HCV NS3/4A protease (GT1a) (Hepatitis C virus genotype 1a, UniProt P27958, C1185S)
# Construct: His-tag (cleaved yes); made in house; host or cells: Escherichia coli BL21(DE3), PET28a vector
# assay name: biochemical
# Assay type: biochemical
pKi: −log10 of the molar value.
assay metric: pKi

compound	assay metric	numeric value
COc1ccc2nc(C)c(O[C@@H]3C[C@H]4C(=O)N[C@]5(C(=O)NS(=O)(=O)C6(C)CC6)C[C@H]5/C=C\CCCCC[C@H](NC(=O)OC5(C)CC5)C(=O)N4C3)nc2c1	pKi	8.35
COc1ccc2nc(C(F)(F)F)c(O[C@@H]3C[C@H]4C(=O)N[C@]5(C(=O)NS(=O)(=O)C6(C)CC6)C[C@H]5/C=C\CCCCC[C@H](NC(=O)OCC5(C)CC5)C(=O)N4C3)nc2c1	pKi	8.54
COc1ccc2nc(C(F)(F)F)c(O[C@@H]3C[C@H]4C(=O)N[C@]5(C(=O)NS(=O)(=O)C6(C)CC6)C[C@H]5/C=C\CCCCC[C@H](NC(=O)O[C@@H](C)C(F)(F)F)C(=O)N4C3)nc2c1	pKi	8.11
COc1ccc2nc(C(F)(F)F)c(O[C@@H]3C[C@H]4C(=O)N[C@]5(C(=O)NS(=O)(=O)C6(C)CC6)C[C@H]5/C=C\CCCCC[C@H](NC(=O)OCC5(C(F)(F)F)CC5)C(=O)N4C3)nc2c1	pKi	8.46
COc1ccc2nc(C(F)(F)F)c(O[C@@H]3C[C@H]4C(=O)N[C@]5(C(=O)NS(=O)(=O)C6(C)CC6)C[C@H]5/C=C\CCCCC[C@H](NC(=O)OCC(C)(C)C)C(=O)N4C3)nc2c1	pKi	8.53
CCC(C)(C)OC(=O)N[C@H]1CCCCC/C=C\[C@@H]2C[C@@]2(C(=O)NS(=O)(=O)C2(C)CC2)NC(=O)[C@@H]2C[C@@H](Oc3nc4cc(OC)ccc4nc3C(F)(F)F)CN2C1=O	pKi	8.57
COc1ccc2nc(C(F)(F)F)c(O[C@@H]3C[C@H]4C(=O)N[C@]5(C(=O)NS(=O)(=O)C6(C)CC6)C[C@H]5/C=C\CCCCC[C@H](NC(=O)OC5(C(F)(F)F)CCC5)C(=O)N4C3)nc2c1	pKi	8.70
COc1ccc2nc(C(F)(F)F)c(O[C@@H]3C[C@H]4C(=O)N[C@]5(C(=O)NS(=O)(=O)C6(C)CC6)C[C@H]5/C=C\CCCCC[C@H](NC(=O)O[C@H](C)C(F)(F)F)C(=O)N4C3)nc2c1	pKi	8.55
COc1ccc2nc(C)c(O[C@@H]3C[C@H]4C(=O)N[C@]5(C(=O)NS(=O)(=O)C6(C)CC6)C[C@H]5/C=C\CCCCC[C@H](NC(=O)O[C@H](C)C5CC5)C(=O)N4C3)nc2c1	pKi	8.82
CCC1(OC(=O)N[C@H]2CCCCC/C=C\[C@@H]3C[C@@]3(C(=O)NS(=O)(=O)C3(C)CC3)NC(=O)[C@@H]3C[C@@H](Oc4nc5cc(OC)ccc5nc4C)CN3C2=O)CCCC1	pKi	8.89
COc1ccc2nc(C)c(O[C@@H]3C[C@H]4C(=O)N[C@]5(C(=O)NS(=O)(=O)C6(C)CC6)C[C@H]5/C=C\CCCCC[C@H](NC(=O)OC(C)(C)C(F)(F)F)C(=O)N4C3)nc2c1	pKi	8.59
COc1ccc2nc(C(F)(F)F)c(O[C@@H]3C[C@H]4C(=O)N[C@]5(C(=O)NS(=O)(=O)C6(C)CC6)C[C@H]5/C=C\CCCCC[C@H](NC(=O)OC(C)(C)C)C(=O)N4C3)nc2c1	pKi	8.24
COc1ccc2nc(C(F)(F)F)c(O[C@@H]3C[C@H]4C(=O)N[C@]5(C(=O)NS(=O)(=O)C6(C)CC6)C[C@H]5/C=C\CCCCC[C@H](NC(=O)OC5CC(F)(F)C5)C(=O)N4C3)nc2c1	pKi	7.96
COc1ccc2nc(C(F)(F)F)c(O[C@@H]3C[C@H]4C(=O)N[C@]5(C(=O)NS(=O)(=O)C6(C)CC6)C[C@H]5/C=C\CCCCC[C@H](NC(=O)O[C@H](C)C5CC5)C(=O)N4C3)nc2c1	pKi	7.93
COc1ccc2nc(C)c(O[C@@H]3C[C@H]4C(=O)N[C@]5(C(=O)NS(=O)(=O)C6(C)CC6)C[C@H]5/C=C\CCCCC[C@H](NC(=O)OCC5(C)CC5(F)F)C(=O)N4C3)nc2c1 (stereo partly shown)	pKi	8.51
COc1ccc2nc(C(F)(F)F)c(O[C@@H]3C[C@H]4C(=O)N[C@]5(C(=O)NS(=O)(=O)C6(C)CC6)C[C@H]5/C=C\CCCCC[C@H](NC(=O)OCC5(C)CC5(F)F)C(=O)N4C3)nc2c1 (stereo partly shown)	pKi	8.68
COc1ccc2nc(C(F)(F)F)c(O[C@@H]3C[C@H]4C(=O)N[C@]5(C(=O)NS(=O)(=O)C6(C)CC6)C[C@H]5/C=C\CCCCC[C@H](NC(=O)OC5CC5)C(=O)N4C3)nc2c1	pKi	7.87
COc1ccc2nc(C(F)(F)F)c(O[C@@H]3C[C@H]4C(=O)N[C@]5(C(=O)NS(=O)(=O)C6(C)CC6)C[C@H]5/C=C\CCCCC[C@H](NC(=O)OC5(C)CCC5)C(=O)N4C3)nc2c1	pKi	8.31
COc1ccc2nc(C)c(O[C@@H]3C[C@H]4C(=O)N[C@]5(C(=O)NS(=O)(=O)C6(C)CC6)C[C@H]5/C=C\CCCCC[C@H](NC(=O)OC5(C)CCC5)C(=O)N4C3)nc2c1	pKi	8.85
